tested on: NCI-H460 lung; experiment: NCI-60 one-dose screen, 48 h (100 = growth as untreated, 0 = no growth, -100 = all killed); details: 10 µM unless noted
The panel holds about 83,000 compounds, 20% with a hit somewhere; the sample as a whole holds those more often.
recordedEndpoint: growth (%)
Express your answer in %, writing the number without its unit.

Lookup: Form field: reported growth of CCNC(=O)N1CCc2cc(OC)c(OCCc3ccc(OC)nc3)cc2C1c1ccc(OC)cc1C (centres undefined)
Found: 3.64

Lookup: Form field: reported growth of `O=C(CNc1nc(-c2cccc([N+](=O)[O-])c2)cs1)Nc1cccc(Cl)c1`
Found: 113

Lookup: Form field: reported growth of `Nc1nc(-c2cccc([N+](=O)[O-])c2)c(N=Nc2ccccc2)s1`
Found: 56.6

Lookup: Form field: reported growth of `CS(=O)(=O)Nc1cc(-c2ccc3ncc(C#N)c(NCc4ccccc4)c3c2)cnc1Cl`
Found: 3.01

Lookup: Form field: reported growth of `COc1cc2oc(-c3cccc(C(=O)N[C@@H](CC(C)C)C(=O)OC(C)(C)C)c3)cc(=O)c2c(OC)c1OC`
Found: 37.8

Lookup: Form field: reported growth of `Cc1nc(-c2ccccc2O)ccc1C(=O)N=Nc1c(O)[nH]c2ccc(Br)cc12`
Found: 99.8

Lookup: Form field: reported growth of `N#Cc1cnc2ccc(-c3cnc(N)nc3)cc2c1N1CCc2cc(F)c(Cl)cc21`
Found: 7.28

Lookup: Form field: reported growth of C=CCOc1cccc(/C=C2\SC(=S)N(C3CC(=O)N(c4ccc(Br)cc4)C3=O)C2=O)c1 (centres undefined)
Found: 104

Lookup: Form field: reported growth of `O=C(CN1CCN(c2cc(=O)n(-c3ccccc3)c3ccccc23)CC1)Nc1nc(-c2ccc(Cl)cc2)cs1`
Found: 54.8

Lookup: Form field: reported growth of `O=C(NCCN1CCCC1)c1ccc(-c2nc3ccc4[nH]ncc4c3c3c2CCCC3)cc1`
Found: -5.93

Lookup: Form field: reported growth of `C#CCn1cccc1CNc1ccc(OC)cc1`
Found: -50.5

Lookup: Form field: reported growth of `c1cc(-c2nc3ccc4[nH]ncc4c3c3c2CCCC3)[nH]n1`
Found: 38.8

Lookup: Form field: reported growth of `O=C1C(c2ccccc2)=C(N2CCc3ccccc32)OC1(Cl)Cl`
Found: 88.2

Lookup: Form field: reported growth of CCO/C=N/C1=C(C#N)C(c2ccc(Cl)cc2)c2sc3c(C)cccc3c2O1 (centres undefined)
Found: 4.89

Lookup: Form field: reported growth of `CS(=O)(=O)Nc1cc(-c2ccc3ncc(C#N)c(Nc4cccc(Cl)c4F)c3c2)cnc1Cl`
Found: 6.34

Lookup: Form field: reported growth of `NC(=O)c1c(NC(=O)c2ccccc2C(F)(F)F)sc2c1CCC(=O)C2`
Found: 58.4

Lookup: Form field: reported growth of `CC1(C)[C@@H](O)CC[C@]2(C)[C@H]3CC[C@@H]4[C@H]5[C@H](C(=O)/C=C\c6ccc([N+](=O)[O-])cc6)CC[C@]5(O)CC[C@@]4(C)[C@]3(C)CC[C@@H]12`
Found: 51.8

Lookup: Form field: reported growth of `CC(=O)O[C@@H]1C(=O)N(c2cnccn2)[C@H]1c1ccccc1[N+](=O)[O-]`
Found: -5.1

Lookup: Form field: reported growth of COc1cc2nc(Cl)nc(Nc3cccc(C4=Nc5c(N)nc(N)nc5NC(c5ccc6c(c5)OCO6)C4)c3)c2cc1OC (centres undefined)
Found: 55.5
